All values here come from paper PMC3254824.

testSystem: UniProtKB P53215
Sequence (P53215 whole entry): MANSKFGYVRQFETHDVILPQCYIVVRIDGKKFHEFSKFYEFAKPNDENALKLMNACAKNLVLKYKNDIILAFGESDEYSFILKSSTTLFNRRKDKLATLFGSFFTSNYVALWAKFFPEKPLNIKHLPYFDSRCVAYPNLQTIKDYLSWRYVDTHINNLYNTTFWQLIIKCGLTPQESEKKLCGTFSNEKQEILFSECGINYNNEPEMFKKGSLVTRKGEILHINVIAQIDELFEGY
methodNotes: single-turnover nucleotidyl transfer kinetics, gamma-32P ppp-tRNA
Assay type: biochemical
statedConditions: read-out: KDapp,NTP, nucleotidyl transfer step, 15 μM enzyme, 10 mM MgCl2, pH 7.5, room temperature
reportedProperty: Kd (µM)
Numbers only here, please. The scale is µM.

Looking up "Nc1nc2c(ncn2[C@@H]2O[C@H](COP(=O)(O)OP(=O)(O)OP(=O)(O)O)[C@@H](O)[C@H]2O)c(=O)[nH]1" , I found its Kd recorded as 21
